# measurementTarget: recombinant human PREP (Homo sapiens)
# Construct: purchased R&D System
# Sequence (P48147 whole entry): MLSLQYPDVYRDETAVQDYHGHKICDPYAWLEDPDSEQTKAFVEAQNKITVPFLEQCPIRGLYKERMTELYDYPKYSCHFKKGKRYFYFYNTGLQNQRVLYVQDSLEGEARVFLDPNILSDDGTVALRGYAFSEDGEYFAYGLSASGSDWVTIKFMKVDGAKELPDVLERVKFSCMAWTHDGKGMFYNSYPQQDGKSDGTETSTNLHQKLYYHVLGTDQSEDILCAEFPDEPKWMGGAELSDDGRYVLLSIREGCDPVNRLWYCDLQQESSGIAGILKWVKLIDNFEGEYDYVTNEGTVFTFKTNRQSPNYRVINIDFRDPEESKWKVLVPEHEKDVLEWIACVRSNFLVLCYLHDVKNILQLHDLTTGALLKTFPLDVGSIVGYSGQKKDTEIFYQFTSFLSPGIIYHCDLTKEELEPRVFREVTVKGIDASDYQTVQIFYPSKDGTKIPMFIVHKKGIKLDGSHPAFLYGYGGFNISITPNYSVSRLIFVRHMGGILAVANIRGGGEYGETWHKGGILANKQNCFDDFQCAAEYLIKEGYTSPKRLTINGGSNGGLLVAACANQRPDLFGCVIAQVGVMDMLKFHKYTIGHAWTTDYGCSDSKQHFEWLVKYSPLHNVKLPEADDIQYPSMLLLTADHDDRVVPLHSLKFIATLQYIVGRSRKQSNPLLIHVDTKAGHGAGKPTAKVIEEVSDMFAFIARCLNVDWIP
# procedureDetails: PREP inhibition, fluorogenic substrate Z-Gly-Pro-AMC
# Format: biochemical
# appliedConditions: Inhibitory Activity (IC50, nM) PREP, recombinant human PREP
# Procedure: The compounds according to the present technology were evaluated in terms of the inhibitory effect on the activity of dipeptidyl peptidases including FAP by using a substrate producing fluorescent substances upon enzymatic decomposition. […] Fluorescence intensity was measured using a microplate reader (Flexstation3, Molecular Devices) under the wavelength condition exciting at 380 nm and reading the emission at 460 nm. […]
testReadout: IC50 (nM)
Respond with the bare value in nM.

compound="CN(c1ccc2cccnc2c1)C1CCN(CC(=O)N2CCC[C@H]2C#N)CC1 [Example 311]" measurementtarget="recombinant human PREP (Homo sapiens)" testreadout=IC50 observedmeasurement=4350
compound="N#C[C@@H]1C[C@H](F)CN1C(=O)CN1CC[C@@H](Nc2cccc3ncc(F)cc23)C1 [Example 184]" measurementtarget="recombinant human PREP (Homo sapiens)" testreadout=IC50 observedmeasurement=3150
compound="N#C[C@@H]1C[C@H](F)CN1C(=O)CN1CCC(Oc2cc(C(F)(F)F)nc3ccccc23)CC1 [Example 412]" measurementtarget="recombinant human PREP (Homo sapiens)" testreadout=IC50 observedmeasurement=1280
compound="N#C[C@@H]1C[C@H](F)CN1C(=O)CN1CC[C@@H](Nc2ccc3nc(C(F)(F)F)ccc3c2)C1 [Example 210]" measurementtarget="recombinant human PREP (Homo sapiens)" testreadout=IC50 observedmeasurement=1480
compound="N#Cc1ccc2c(N[C@H]3CCN(CC(=O)N4C[C@@H](F)C[C@H]4C#N)C3)cccc2n1 [Example 252]" measurementtarget="recombinant human PREP (Homo sapiens)" testreadout=IC50 observedmeasurement=3320

Input: Which IC50 value belongs to N#C[C@@H]1C[C@H](F)CN1C(=O)CN1CC[C@@H](Nc2ccnc3c(Cl)cccc23)C1 [Example 189] ?
Output: 1150

Input: Can you handle CN(c1ccc2ccncc2c1)C1CCN(CC(=O)N2C[C@@H](F)C[C@H]2C#N)CC1 [Example 319] next?
Output: 503

Input: Record: CN(Cc1ccccc1)C(=O)c1ccc(N[C@H]2CCN(CC(=O)N3CCC[C@H]3C#N)C2)c2cccnc12 [Example 288]
Output: 11400

----------
# measurementTarget: DPP4 (Homo sapiens, UniProt P27487)
# Sequence (P27487 whole entry): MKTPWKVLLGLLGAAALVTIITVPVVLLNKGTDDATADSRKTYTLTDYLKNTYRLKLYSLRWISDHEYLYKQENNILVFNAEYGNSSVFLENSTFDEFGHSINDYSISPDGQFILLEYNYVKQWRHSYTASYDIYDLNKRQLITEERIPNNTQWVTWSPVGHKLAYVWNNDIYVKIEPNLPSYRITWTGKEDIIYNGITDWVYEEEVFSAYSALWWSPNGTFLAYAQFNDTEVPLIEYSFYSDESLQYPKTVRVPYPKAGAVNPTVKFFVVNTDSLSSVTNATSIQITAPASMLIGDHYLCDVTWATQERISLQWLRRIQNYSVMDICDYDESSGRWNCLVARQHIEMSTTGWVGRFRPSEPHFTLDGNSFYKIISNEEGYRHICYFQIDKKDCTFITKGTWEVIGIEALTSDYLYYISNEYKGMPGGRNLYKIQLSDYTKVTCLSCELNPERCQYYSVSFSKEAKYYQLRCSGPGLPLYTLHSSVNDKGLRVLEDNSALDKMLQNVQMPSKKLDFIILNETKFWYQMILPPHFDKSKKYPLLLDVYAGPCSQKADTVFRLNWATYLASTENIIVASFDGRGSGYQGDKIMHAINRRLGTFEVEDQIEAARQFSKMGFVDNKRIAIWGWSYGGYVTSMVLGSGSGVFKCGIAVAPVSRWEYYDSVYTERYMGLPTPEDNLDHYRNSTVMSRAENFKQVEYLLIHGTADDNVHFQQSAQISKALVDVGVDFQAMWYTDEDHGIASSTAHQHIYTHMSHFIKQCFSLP
# procedureDetails: DPP4 inhibition, fluorogenic substrate H-Gly-Pro-AMC
# Assay type: biochemical
# Design: purchased R&D Systems
# appliedConditions: recombinant human DPP4
Lab note: compare IC50 with 30 µM, writing true if less and false if equal or more.

Completed entries (count: 5):
compound="Cc1ccc2nccc(N[C@@H]3CCN(CC(=O)N4CCC[C@H]4C#N)C3)c2c1 [Example 223]" measurementtarget="DPP4 (Homo sapiens, UniProt P27487)" cat=false
compound="N#C[C@@H]1C[C@H](F)CN1C(=O)CN1CC[C@H](Nc2ccnc3c(C(F)(F)F)cccc23)C1 [Example 271]" measurementtarget="DPP4 (Homo sapiens, UniProt P27487)" cat=true
compound="COc1cccc2cc(N(C)C3CCN(CC(=O)N4C[C@@H](F)C[C@H]4C#N)CC3)cnc12 [Example 329]" measurementtarget="DPP4 (Homo sapiens, UniProt P27487)" cat=true
compound="N#C[C@@H]1CCCN1C(=O)CN1CC[C@H](Nc2cccc3ncc(F)cc23)C1 [Example 234]" measurementtarget="DPP4 (Homo sapiens, UniProt P27487)" cat=false
compound="N#C[C@@H]1C[C@H](F)CN1C(=O)CN1CCC(Nc2ccc([N+](=O)[O-])c3cnccc23)CC1 [Example 356]" measurementtarget="DPP4 (Homo sapiens, UniProt P27487)" cat=true

Input: Confirm or reject: IC50 of N#C[C@@H]1C[C@H](F)CN1C(=O)CN1CCC(Nc2ccnc3c(C(F)(F)F)cccc23)CC1 [Example 346] lies strictly below 30 µM
Output: true

Input: Next compound up: N#C[C@@H]1C[C@H](F)CN1C(=O)CN1CCC(Nc2ccc(OCc3ccccc3)c3ncccc23)CC1 [Example 332]
Output: true
